Reference source for all entries: ChEMBL document CHEMBL1145024

# experimentNotes: Inhibition of L-type calcium channel subunits alpha1C, beta1b, and alpha2-delta subunits expressed in Human embryonic kidney tsa-201 cells
# Type: cell-based
pIC50: −log10 of the molar value.
Property: pIC50; scope: individual molecules
metricName: pIC50

molecule | metricName | assayResult
CCOC(=O)C1=C(C)N=C(C)/C(=C(/O)OCC)C1c1c(-c2cc(Cl)ccc2OC)noc1C (stereo not drawn) | pIC50 | 5.16
CCOC(=O)C1=C(C)N=C(C)/C(=C(/O)OCC)C1c1c(C)noc1CCc1cccc(Br)c1 (stereo not drawn) | pIC50 | 6.89
COC(=O)C1=C(C)N=C(C)/C(=C(/O)OC)C1c1c(-c2ccc(Cl)cc2)noc1C (stereo not drawn) | pIC50 | 5.76
